Task for the reader: assign each of the following molecules its reported pIC50.
- assayed target: Hepatitis C virus NS5B RNA-dependent RNA polymerase (Hepatitis C virus)
- Sequence (Q8JXU8 whole entry): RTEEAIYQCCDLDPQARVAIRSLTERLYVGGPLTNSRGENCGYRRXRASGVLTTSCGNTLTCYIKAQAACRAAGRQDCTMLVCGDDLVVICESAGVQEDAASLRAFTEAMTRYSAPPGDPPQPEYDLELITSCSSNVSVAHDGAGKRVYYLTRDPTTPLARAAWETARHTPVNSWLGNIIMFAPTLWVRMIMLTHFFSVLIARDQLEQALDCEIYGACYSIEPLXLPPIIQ
On this scale, pIC50 is minus log10 of a concentration expressed in M (mol/L).

## Input Any idea what pIC50 was measured for N#Cc1cccc(CN(C(=O)c2ccc(Cl)cc2Cl)[C@@H](Cc2ccccc2)C(=O)O)c1 ?
## Output 6.10

## Input Input CC1CCC(C(=O)N(C)c2ccc(Oc3ccccc3C(F)(F)F)cc2C(=O)O)CC1 (stereo not drawn)
## Output 6.70

## Input Try the molecule O=C(O)[C@H](Cc1ccccc1)N(Cc1cccc(C(F)(F)F)c1)C(=O)c1ccc(Cl)cc1Cl
## Output 5.77

All values here come from ChEMBL document CHEMBL6127060.
